Where these numbers come from: paper PMC8705538

# EXPERIMENT: Cytotoxicity, neutral red uptake, A549
# Assay type: cell-based
# PARTICULARS: human; 48 h, neutral red uptake; read-out: Cytotoxicity (CC50) A549
MEASURED_PARAMETER: CC50 at 48 h (µM)
# unit: µM | format: bare number

input: # lookup: CC50 at 48 h of Nc1ncnc2c1ncn2[C@@H]1O[C@H](C[C@@H](N)CC[C@H](N)C(=O)O)[C@@H](O)[C@H]1O [Sinefungin, reference compound]
output: 72.9

input: What do you get for `O=C(Cc1csc(SCC(=O)c2ccccc2)n1)Nc1cccc2nsnc12` ?
output: 97

----------
# MEASUREMENT_TARGET: SARS-CoV-2 nsp14 (Severe acute respiratory syndrome coronavirus 2)
# EXPERIMENT: biochemical
# PARTICULARS: 100 μM
Consider the following compounds and their measured Percent inhibition at 100 μM, nsp14 readings.
# unit: % | format: bare number

1) CN(C)c1nc2c(c(N(C)C)n1)CCN(C(=O)[C@@H](N)Cc1ccc(O)cc1)C2
12
2) O=C(Nc1ccc(N2CCOCC2)cc1)c1oc2ccccc2c1CSc1nnc[nH]1
3
3) O=C(CCc1nc2cc(Cl)ccc2[nH]1)N1CC[C@H](n2c(=O)[nH]c3cccnc32)C1
6
4) COc1c(C)c2c(c(O)c1CC=C(C)CCC(=O)Nc1nnc[nH]1)C(=O)OC2
5
5) O=C(CCc1ccncc1)NC(c1ccccc1)C1CC(O)C1 (centres unmarked)
13
6) NC(=O)Cn1cnc2c(cnn2CCO)c1=O
2
7) CCc1n[nH]c2c1CN(C(=O)c1cccc(-c3cc(O)nc(N)n3)c1)CC2
1

Then this compound:
input: # lookup: Percent inhibition at 100 μM, nsp14 of O=C(CCn1cncn1)N1CCCC1c1nc2ccccc2s1 (centres unmarked)
output: 2
